# measured-on: Fibroblast growth factor 2 (Homo sapiens)
# test-details: basic fibroblast growth factor binding to printed compounds – biochemical, small-molecule microarray, 635/667 nm fluorescence, primary screen (AID 1133)
# condition-description: FGF2, fluorescence 635/667, higher = more signal

| compound | measured-on | composite z-score |
| --- | --- | --- |
| O=C1O[C@@H](c2ccccc2)[C@@H](c2ccccc2)N2[C@@H](c3ccc(O)cc3)[C@]3(C(=O)Nc4ccc(C#CCCO)cc43)[C@@H](C(=O)O)[C@H]12 | Fibroblast growth factor 2 (Homo sapiens) | -0.196 |
| CN1C(=O)C2C=CC(C(O)C3=C[C@H]4C[C@@H](C3)C4(C)C)N(Nc3ccc([N+](=O)[O-])cc3[N+](=O)[O-])C2C1=O (stereo partly drawn) | Fibroblast growth factor 2 (Homo sapiens) | 0.0958 |
| COc1ccc([Si](C)(C)[C@@H]2[C@@H](CC(=O)N3Cc4ccccc4C[C@H]3CO)O[C@]3(C(=O)N(Cc4cccc(N5C(=O)COc6ccccc65)c4)c4ccccc43)[C@H]2C)cc1 | Fibroblast growth factor 2 (Homo sapiens) | 1.76 |
| O=C1OCCC=C[C@H]2OC34C=CCN(CCN5CCOCC5)C(=O)[C@H]3N(CCO)C(=O)[C@@H]4C12 (stereo partly drawn) | Fibroblast growth factor 2 (Homo sapiens) | 0.785 |
| [N-]=[N+]=Nc1ccccc1[C@@H]1OC(c2ccc(OCCCO)cc2)=N[C@]1(CCS(=O)(=O)c1ccccc1)C(=O)O | Fibroblast growth factor 2 (Homo sapiens) | 0.933 |
| CCCCN1CC=CC23O[C@@H]4C=CCCOC(=O)C4[C@H]2C(=O)N(CCCO)[C@@H]3C1=O (stereo partly drawn) | Fibroblast growth factor 2 (Homo sapiens) | -0.469 |
| [N-]=[N+]=NCc1ccccc1[C@H]1OC(c2ccc(OCCCO)cc2)=N[C@@]1(Cc1ccccc1)C(=O)O | Fibroblast growth factor 2 (Homo sapiens) | 1.42 |
| [N-]=[N+]=NCc1ccccc1C[C@]1(C(=O)NCc2ccccc2)COC(c2ccc(OCCCO)cc2)=N1 | Fibroblast growth factor 2 (Homo sapiens) | 0.661 |
| C=CCOC(=O)[C@H]1[C@@H]2C(=O)O[C@@H](c3ccccc3)[C@@H](c3ccccc3)N2[C@@H](c2ccc(OCCOC(=O)[C@H]3C[C@H]4C(=O)N[C@@H](CCCC[N+](C)(C)C)C(=O)N4[C@H]3c3ccc(O)cc3)cc2)[C@]12C(=O)Nc1ccccc12 | Fibroblast growth factor 2 (Homo sapiens) | 0.703 |
| COc1ccc([Si](C)(C)[C@H]2[C@H](CC(=O)N3CCC[C@H]3CO)O[C@@]3(C(=O)N(c4ccccc4)c4ccccc43)[C@@H]2C)cc1 | Fibroblast growth factor 2 (Homo sapiens) | 0.441 |
| C=C(C(=O)CC[C@@H](OC(=O)c1cccnc1)c1ccc(CO)o1)C(C)C | Fibroblast growth factor 2 (Homo sapiens) | 1.1 |
| CCOC(=O)C1=C[C@@H](C(C)(C)C)N(S(=O)(=O)c2ccc(C)cc2)[C@H]1c1ccc(Cl)c(Cl)c1 | Fibroblast growth factor 2 (Homo sapiens) | 0.202 |
| COCCOC(=O)N1C(=O)[C@@]2(c3cc(C#CCC(C(=O)OC)C(=O)OC)ccc31)[C@H](c1ccc(OCCO)cc1)N1[C@H](c3ccccc3)[C@H](c3ccccc3)OC(=O)[C@H]1[C@@H]2C(=O)NC[C@H](O)c1ccccc1 | Fibroblast growth factor 2 (Homo sapiens) | 1.7 |
| NC(=O)[C@]1(Cc2ccccc2)N=C(c2ccc(OCCCO)cc2)O[C@@H]1c1ccccc1 | Fibroblast growth factor 2 (Homo sapiens) | -0.555 |
| C=CC[C@@]1(C(=O)OC)N=C(c2ccc(OCCCO)cc2)O[C@@H]1c1ccccc1CN=[N+]=[N-] | Fibroblast growth factor 2 (Homo sapiens) | 0.0452 |
| COC(=O)c1c(CC[C@@H](CO)NC(=O)Nc2ncn[nH]2)oc(C(=O)Cc2ccccc2)c1C(=O)OC | Fibroblast growth factor 2 (Homo sapiens) | 1.58 |
| CN1C(=O)C2C=CC(C(O)C(c3ccccc3)c3ccccc3)N(Nc3ccccc3)C2C1=O (stereo not drawn) | Fibroblast growth factor 2 (Homo sapiens) | 0.0635 |
| C=C(/C(=C/C[C@@H](OC(=O)c1ccncc1)c1ccc(CO)o1)c1cc(C(=O)OC)ccc1OC)C(C)C | Fibroblast growth factor 2 (Homo sapiens) | 1.3 |
| CO[C@H]1O[C@H](CO)[C@@H](OC(=O)Nc2ccc(C(F)(F)F)cc2)[C@H](OC(=O)Nc2ccccc2)[C@@H]1OC(=O)Nc1ccccc1 | Fibroblast growth factor 2 (Homo sapiens) | 0.21 |
| CC(C)C(CO)N1C(=O)[C@@H]2[C@H]3C(=O)OCC=C[C@H]3OC23C=CCN(c2ccc4ccccc4c2)C(=O)[C@@H]13 (stereo partly drawn) | Fibroblast growth factor 2 (Homo sapiens) | -1.18 |
| C=CC[C@]1(C(=O)NCCN2CCOCC2)N=C(c2ccc(OCCCO)cc2)O[C@H]1c1ccccc1N=[N+]=[N-] | Fibroblast growth factor 2 (Homo sapiens) | 0.931 |
| O=C(NCc1ccccc1)[C@@H]1c2ccccc2C(=O)N(C2CCCCC2)[C@H]1c1ccc(CO)cc1 | Fibroblast growth factor 2 (Homo sapiens) | 0.487 |
| COCCOC(=O)N1C(=O)[C@@]2(c3cc(C#CC4=CCCCC4)ccc31)[C@H](C(=O)N1CCN(c3ncccn3)CC1)[C@H]1C(=O)O[C@H](c3ccccc3)[C@H](c3ccccc3)N1[C@@H]2c1ccc(OCCO)cc1 | Fibroblast growth factor 2 (Homo sapiens) | 1.59 |
| COc1c(C)cc(-c2cc3c(c(-c4ccccc4)n2)[Si](C(C)C)(C(C)C)O[C@H]3c2ccccc2)cc1C | Fibroblast growth factor 2 (Homo sapiens) | -0.212 |
| CCCC[C@H]1OB(O)C[C@H]2C1=C(C)Cn1c(=O)n(-c3ccccc3)c(=O)n12 | Fibroblast growth factor 2 (Homo sapiens) | 0.321 |
| COc1cc2c(cc1O)C(c1ccc(CN3CCCC3)cc1)N(Cc1sc3ccccc3c1Cl)CC2 (stereo not drawn) | Fibroblast growth factor 2 (Homo sapiens) | 1.17 |
| O=C1C[C@@](C(=O)O)(c2ccc([N+](=O)[O-])cc2)[C@@H](c2ccc(CO)cc2I)N1C1CCCCC1 | Fibroblast growth factor 2 (Homo sapiens) | 0.293 |
| CN(C)CCCCCCNC(=O)[C@@H]1C[C@@H]2C(=O)NCC(=O)N2[C@@H]1c1cccc(OCCO)c1 | Fibroblast growth factor 2 (Homo sapiens) | 0.826 |
